PE binding ELISA OD values, listed per item
Molecular target: T1, human common cytokine receptor γ-chain (IL-2Rγ) (human, UniProt P31785 23-262, limits assumed)
T1 construct: Recombinant human IL-2Rγ protein, coated (ELISA) or amine-coupled to a CM5 chip (SPR); also called hu IL-2R; CD132
T1 sequence: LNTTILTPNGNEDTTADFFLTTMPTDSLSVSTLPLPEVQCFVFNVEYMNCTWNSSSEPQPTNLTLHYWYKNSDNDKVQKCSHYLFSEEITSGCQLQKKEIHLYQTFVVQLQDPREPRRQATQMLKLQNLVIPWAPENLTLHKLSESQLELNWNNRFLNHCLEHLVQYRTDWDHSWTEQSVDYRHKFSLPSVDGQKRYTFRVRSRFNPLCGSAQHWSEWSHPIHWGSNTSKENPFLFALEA
Assay: P.E. binding ELISA
QUANTITY_MEASURED: PE binding ELISA OD (OD450 nm)

BINDER	QUANTITY_MEASURED	OBS_VALUE
FJ1427_P035MP07D02 (VHH, tested as periplasmic extract; also called Clone nr; 588) VHH: QVQLQESGGGLVQAGGSLRLSCAASGRALSRLAMGWFRQAPGKEREFVVASSWGDDTFYADSVKGRFTFSRDNAKNTVYLQMNSLQPGDTAVYYCAAAPTSFATTAYSSSNSYAYWGQGTQVTVSS	PE binding ELISA OD	0.599
FJ1427_P035MP07A01 (VHH, tested as periplasmic extract; also called Clone nr) VHH: EVQLVESGGGLVQAGDSLRLSCAASGRTLSRYAMGWFRQAPGKEREFVTANSWGGDTYYADSVQGRFTFSRDNAKNTVYLQMNSLQPEDTAVYYCAAAPTSFATTAYSSSNSYAYWGQGTQVTVSS	PE binding ELISA OD	0.478
FJ1427_P035MP07D08 (VHH, tested as periplasmic extract; also called Clone nr) VHH: QLQLVESGGGLVQAGGSLRLSCAASGRTLSRYAMGWFRQAPGKEREFVTANSWGGDTYYADSVQGRFTFSRDNAKNTVYLQMNSLQPEDTAVYYCAAAPTSFATTAYSSSNSYAYWGQGTQVTVSS	PE binding ELISA OD	1.03
FJ1427_P035MP07C01 (VHH, tested as periplasmic extract; also called Clone nr) VHH: QVQLVESGGGLVQAGDSLRLSCVASGRTLSRCAMGWFRKAPGKEREYVAISSWGGDTFYEDSVEGRFTFSRDNAKNTVYLQMNSLRPEDTAVYYCAAAPTSFATTAYSSSNSYAYWGQGTQVTVSS	PE binding ELISA OD	0.945
FJ1427_P035MP07A07 (VHH, tested as periplasmic extract; also called Clone nr) VHH: QVQLVESGGGLVQAGGSLRLSCAASGRTLSRYAMGWFRQAPGKEREFVTANSWGGDTYYADSVQGRFTFSRDNAKNTVYLQMNSLQPEDTAVYYCAAAPTSFATTAYSSSNSYAYWGQGTQVTVSS	PE binding ELISA OD	1.04
FJ1427_P035MP07E10 (VHH, tested as periplasmic extract; also called Clone nr; 653) VHH: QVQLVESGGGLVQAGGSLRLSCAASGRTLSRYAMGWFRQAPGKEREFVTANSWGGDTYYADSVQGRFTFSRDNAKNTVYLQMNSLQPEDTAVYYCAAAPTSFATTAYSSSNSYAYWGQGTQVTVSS	PE binding ELISA OD	0.434
FJ1427_P035MP07H01 (VHH, tested as periplasmic extract; also called Clone nr) VHH: QVQLVESGGGLVQAGGSLRLFCATSGRTLSRYAMGWFRQAPGREREFVACDSWGGDTFYADSVKGRFTFSRDSAKNTVYLQMNSLQPEDTAVYYCAAAPTSFATTAYSSSNSYAYWGQGTQVTVSS	PE binding ELISA OD	0.818
FJ1427_P035MP07E07 (VHH, tested as periplasmic extract; also called Clone nr) VHH: EVQLVESGGGLVQAGGSLRLSCAASGRTLSRYAMGWFRQAPGSEREFVAASSWGGDTFYADSVEGRFTFSRDNAKNAVYLQMNSLQPEDTAAYYCAAAPTSFPTTAYSSSNSYAYWGQGTQVTVSS	PE binding ELISA OD	0.359
FJ1427_P035MP07G03 (VHH, tested as periplasmic extract; also called Clone nr) VHH: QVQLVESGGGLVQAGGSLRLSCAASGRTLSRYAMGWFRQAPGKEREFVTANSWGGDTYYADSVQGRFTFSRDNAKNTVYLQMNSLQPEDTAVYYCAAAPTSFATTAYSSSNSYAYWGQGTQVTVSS	PE binding ELISA OD	0.495
FJ1427_P035MP07D06 (VHH, tested as periplasmic extract; also called Clone nr; 620) VHH: EVQLVESGGGLVQAGGSLRLSCAASGRTLSRYAMGWFRQAPGKEREFVTANSWGGDTYYADSVQGRFTFSRDNAKNTVYLQMNSLQPEDTAVYYCAAAPTSFATTAYSSSNSYAYWGQGTQVTVSS	PE binding ELISA OD	0.919
FJ1427_P035MP07H10 (VHH, tested as periplasmic extract; also called Clone nr; 656) VHH: EVQLVESGGGLVQAGGSLRLSCAASGRALSRLAMGWFRQAPGKEREFVVASSWGDDTFYADSVKGRFTFSRDNAKNTVYLQMNSLQPGDTAVYYCAAAPTSFATTAYSSSNSYAYWGQGTQVTVSS	PE binding ELISA OD	0.572
FJ1427_P035MP07G02 (VHH, tested as periplasmic extract; also called Clone nr) VHH: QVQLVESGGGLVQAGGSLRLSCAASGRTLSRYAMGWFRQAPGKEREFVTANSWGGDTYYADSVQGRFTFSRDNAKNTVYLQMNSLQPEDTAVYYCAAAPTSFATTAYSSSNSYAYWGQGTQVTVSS	PE binding ELISA OD	1.22
FJ1427_P035MP07G07 (VHH, tested as periplasmic extract; also called Clone nr) VHH: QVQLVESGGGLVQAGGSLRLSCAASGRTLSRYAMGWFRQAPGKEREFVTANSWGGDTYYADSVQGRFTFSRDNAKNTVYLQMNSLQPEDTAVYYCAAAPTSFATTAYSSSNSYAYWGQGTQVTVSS	PE binding ELISA OD	0.479
FJ1427_P035MP07C02 (VHH, tested as periplasmic extract; also called Clone nr; 587) VHH: EVQLVESGGGWVQVGESLRLSCAPSGRTFVSGIMGWFRQTPGKEREFVARIILNNNSTRYTDSVKGRFTISRDSAKNTMYLQMNTLRPEDTAVYYCAARDRYGSGNSLSPSAYDYWGQGTQVTVSS	PE binding ELISA OD	0.48
FJ1427_P035MP07C07 (VHH, tested as periplasmic extract; also called Clone nr; 627) VHH: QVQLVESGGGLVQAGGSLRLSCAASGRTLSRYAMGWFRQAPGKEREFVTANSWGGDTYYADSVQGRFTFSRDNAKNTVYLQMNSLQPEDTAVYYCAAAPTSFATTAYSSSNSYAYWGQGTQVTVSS	PE binding ELISA OD	0.469
